- measurement-target: CDK9/cyclin T1 (Homo sapiens) (UniProt O60563+P50750)
- measurement-parameters: at 1 µM
Below, each of the molecules is paired with its reported residual activity value.

{"smiles-entry": "COc1cc2ncnc(Nc3ccc(Oc4ccccc4)cc3)c2cc1OC", "unit-symbol": "%", "residual activity": 99}
{"smiles-entry": "CC(C)n1cnc2c(NCc3ccccc3)nc(NCCCO)nc21", "unit-symbol": "%", "residual activity": 56}
{"smiles-entry": "Cn1nc2c3c(cccc31)C(=O)c1ccccc1-2", "unit-symbol": "%", "residual activity": 94}
{"smiles-entry": "O=c1cc(-c2cccc3c2Sc2ccccc2S3)oc(N2CCOCC2)c1", "unit-symbol": "%", "residual activity": 100}
{"smiles-entry": "N#Cc1cnc2cnc(NCc3cccnc3)cc2c1Nc1ccc(F)c(Cl)c1", "unit-symbol": "%", "residual activity": 93}
{"smiles-entry": "O=c1c2ccccc2[nH]c(=S)n1CCN1CCC(=C(c2ccc(F)cc2)c2ccc(F)cc2)CC1", "unit-symbol": "%", "residual activity": 100}
{"smiles-entry": "COc1ccc(OC)c2c(=S)c3ccccc3[nH]c12", "unit-symbol": "%", "residual activity": 95}
{"smiles-entry": "COc1cc2ncnc(Nc3ccc(NC(=O)c4ccccc4)cc3)c2cc1OC", "unit-symbol": "%", "residual activity": 111}
{"smiles-entry": "O=C1NC(=O)c2c1c1c3ccccc3[nH]c1c1[nH]c3cc(Br)ccc3c21", "unit-symbol": "%", "residual activity": 82}
{"smiles-entry": "O=C1Nc2cc(Br)ccc2/C1=C1/Nc2ccccc2/C1=N\\O", "unit-symbol": "%", "residual activity": 32}
{"smiles-entry": "Nc1nc(Nc2ccc(S(N)(=O)=O)cc2)nn1C(=S)Nc1c(F)cccc1F", "unit-symbol": "%", "residual activity": 0}

====

- measurement-target: Tyrosine-protein kinase Blk (Homo sapiens) (UniProt P51451)
- Sequence (P51451 2-505 limits assumed): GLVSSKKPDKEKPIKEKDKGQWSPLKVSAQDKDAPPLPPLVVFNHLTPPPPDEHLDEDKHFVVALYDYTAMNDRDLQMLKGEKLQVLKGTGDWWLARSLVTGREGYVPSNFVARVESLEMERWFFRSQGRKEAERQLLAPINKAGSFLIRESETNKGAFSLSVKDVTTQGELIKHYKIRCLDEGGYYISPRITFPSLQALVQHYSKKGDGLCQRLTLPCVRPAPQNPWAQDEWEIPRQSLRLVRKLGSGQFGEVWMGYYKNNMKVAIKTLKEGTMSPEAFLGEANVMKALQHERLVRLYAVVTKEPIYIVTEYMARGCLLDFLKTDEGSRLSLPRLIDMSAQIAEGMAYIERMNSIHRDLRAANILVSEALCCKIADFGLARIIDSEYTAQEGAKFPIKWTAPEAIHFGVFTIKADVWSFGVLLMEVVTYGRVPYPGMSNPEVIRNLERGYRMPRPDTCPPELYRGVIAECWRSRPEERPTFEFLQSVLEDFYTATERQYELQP
- measurement-parameters: at 10 µM

{"smiles-entry": "O=C(Nc1cccc(Nc2cc(Nc3cccc(C(F)(F)F)c3)ncn2)c1)C1CC1", "unit-symbol": "%", "residual activity": 69}
{"smiles-entry": "O=C1Nc2ccc(Br)cc2/C1=C\\c1cc2c([nH]1)CCCC2", "unit-symbol": "%", "residual activity": 38}
{"smiles-entry": "Cc1cc2ncc(-c3ccccc3)nc2cc1C", "unit-symbol": "%", "residual activity": 95}
{"smiles-entry": "O=C1NC(=O)c2cc(Nc3ccc(F)cc3)c(Nc3ccc(F)cc3)cc21", "unit-symbol": "%", "residual activity": 38}
{"smiles-entry": "CC#CC(=O)Nc1cc2c(Nc3ccc(F)c(Cl)c3)ncnc2cn1", "unit-symbol": "%", "residual activity": 49}

====

- measurement-target: Protein kinase C theta type (Homo sapiens)
- measurement-parameters: at 10 µM
endpoint: residual activity (%)

{"smiles-entry": "Oc1n[nH]c2nnc(-c3c(-c4ccccc4)nn4ccccc34)cc12", "unit-symbol": "%", "value-reported": 75}
{"smiles-entry": "CC(=O)O/N=C1\\C(=C2\\C(=O)Nc3cc(Br)ccc32)Nc2ccccc21", "unit-symbol": "%", "value-reported": 96}
{"smiles-entry": "O=C1Nc2cc(Br)ccc2/C1=C1/Nc2ccccc2/C1=N\\O", "unit-symbol": "%", "value-reported": 75}
{"smiles-entry": "Oc1c2ccccc2c2c3c(cccc13)N=N2", "unit-symbol": "%", "value-reported": 76}
{"smiles-entry": "CO[C@H]1[C@@H](OC)C[C@H](C)[C@@H](OC)C2=CC(=O)C=C(NC(=O)/C(C)=C/C=C/[C@H](OC)[C@@H](OC(N)=O)/C(C)=C/[C@@H]1C)C2=O", "unit-symbol": "%", "value-reported": 98}
{"smiles-entry": "CO[C@H]1C[C@@H]2CC[C@@H](C)[C@@](O)(O2)C(=O)C(=O)N2CCCC[C@H]2C(=O)O[C@H]([C@H](C)C[C@@H]2CC[C@@H](O)[C@H](OC)C2)CC(=O)[C@H](C)/C=C(\\C)[C@@H](O)[C@@H](OC)C(=O)[C@H](C)C[C@H](C)/C=C/C=C/C=C/1C", "unit-symbol": "%", "value-reported": 113}
{"smiles-entry": "Cc1cccc(-c2[nH]c(C(C)(C)C)nc2-c2ccc3c(c2)OCO3)n1", "unit-symbol": "%", "value-reported": 95}
{"smiles-entry": "COc1ccc(S(=O)(=O)N(CCO)c2ccccc2CN(C)C/C=C/c2ccc(Cl)cc2)cc1", "unit-symbol": "%", "value-reported": 93}

====

- measurement-target: Receptor-interacting serine/threonine-protein kinase 2 (Homo sapiens) (UniProt O43353)
- Sequence (O43353 whole entry): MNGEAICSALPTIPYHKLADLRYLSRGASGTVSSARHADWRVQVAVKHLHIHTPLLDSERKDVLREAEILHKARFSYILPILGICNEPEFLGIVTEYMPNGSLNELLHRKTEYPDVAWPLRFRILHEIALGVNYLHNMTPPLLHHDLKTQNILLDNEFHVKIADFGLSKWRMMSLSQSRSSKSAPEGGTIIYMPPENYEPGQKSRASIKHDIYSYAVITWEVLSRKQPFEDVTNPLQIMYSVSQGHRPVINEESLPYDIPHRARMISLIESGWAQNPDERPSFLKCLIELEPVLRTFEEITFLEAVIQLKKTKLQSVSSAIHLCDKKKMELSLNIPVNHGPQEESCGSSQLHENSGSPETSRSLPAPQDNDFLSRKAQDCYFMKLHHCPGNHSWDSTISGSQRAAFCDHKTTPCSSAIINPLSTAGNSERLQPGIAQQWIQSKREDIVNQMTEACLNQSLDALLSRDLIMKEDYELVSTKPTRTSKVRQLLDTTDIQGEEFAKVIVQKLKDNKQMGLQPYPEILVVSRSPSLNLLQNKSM
- measurement-parameters: at 1 µM
- Description: Millipore: Percentage of residual kinase activity of RIPK2 at 1uM relative to control. Control inhibitor: Phosphoric acid* at 0.3uM. Buffer: 8 mM MOPS pH 7.0, 0.2 mM EDTA

{"molecule": "C[C@@H](N)[C@H]1CC[C@H](C(=O)Nc2ccncc2)CC1", "residual activity": "96%"}
{"molecule": "O=Nc1c(-c2c(O)[nH]c3ccccc23)[nH]c2ccccc12", "residual activity": "60%"}
{"molecule": "N#Cc1cnc2cnc(NCc3cccnc3)cc2c1Nc1ccc(F)c(Cl)c1", "residual activity": "100%"}
{"molecule": "Cc1ccc(NC2=CC(=O)c3sc(C)nc3C2=O)cc1", "residual activity": "81%"}
{"molecule": "Cc1cncc2cccc(S(=O)(=O)N3CCCN(C(=O)CN)C[C@H]3C)c12", "residual activity": "95%"}
{"molecule": "O=C1Nc2ccccc2/C1=C1/Nc2ccccc2/C1=N\\OCCC(O)CO (stereo unspecified)", "residual activity": "58%"}
{"molecule": "CC(C)n1cnc2/c(=N/c3cccc(Cl)c3)nc(NCCO)[nH]c21", "residual activity": "77%"}
{"molecule": "Cn1nc2c3c(cccc31)C(=O)c1ccccc1-2", "residual activity": "89%"}
{"molecule": "CN(C)CCCn1cc(C2=C(c3c[nH]c4ccccc34)C(=O)NC2=O)c2ccccc21", "residual activity": "90%"}
{"molecule": "O=c1cc(-c2cccc3c2Sc2ccccc2S3)oc(N2CCOCC2)c1", "residual activity": "94%"}
{"molecule": "Ic1cccc(CSc2nnc(-c3ccncc3)o2)c1", "residual activity": "82%"}

====

- measurement-target: Serine/threonine-protein kinase mTOR (Homo sapiens) (UniProt P42345)
- measurement-parameters: at 1 µM
Below, each of the molecules is paired with its reported residual activity value.

{"smiles-entry": "Cc1cc(Nc2nc(-c3ccccc3)nc3ccccc23)n[nH]1", "measurement-target": "Serine/threonine-protein kinase mTOR (Homo sapiens) (UniProt P42345)", "unit-symbol": "%", "residual activity": 128}
{"smiles-entry": "COc1cccc(-c2cc(=O)c3ccccc3o2)c1N", "measurement-target": "Serine/threonine-protein kinase mTOR (Homo sapiens) (UniProt P42345)", "unit-symbol": "%", "residual activity": 86}
{"smiles-entry": "Nc1cccc(-c2cc3c(Oc4cccc(O)c4)ncnc3[nH]2)c1", "measurement-target": "Serine/threonine-protein kinase mTOR (Homo sapiens) (UniProt P42345)", "unit-symbol": "%", "residual activity": 122}
{"smiles-entry": "CC(C)n1cnc2/c(=N/c3cccc(Cl)c3)nc(NCCO)[nH]c21", "measurement-target": "Serine/threonine-protein kinase mTOR (Homo sapiens) (UniProt P42345)", "unit-symbol": "%", "residual activity": 82}
{"smiles-entry": "N#C/C(=C(\\N)Sc1ccc(N)cc1)c1ccccc1C(F)(F)F", "measurement-target": "Serine/threonine-protein kinase mTOR (Homo sapiens) (UniProt P42345)", "unit-symbol": "%", "residual activity": 118}
{"smiles-entry": "Cc1ccc(S(=O)(=O)/C=C/C#N)cc1", "measurement-target": "Serine/threonine-protein kinase mTOR (Homo sapiens) (UniProt P42345)", "unit-symbol": "%", "residual activity": 86}

====

- measurement-target: Tyrosine-protein kinase HCK (Homo sapiens) (UniProt P08631)
- Sequence (P08631 2-526 limits assumed): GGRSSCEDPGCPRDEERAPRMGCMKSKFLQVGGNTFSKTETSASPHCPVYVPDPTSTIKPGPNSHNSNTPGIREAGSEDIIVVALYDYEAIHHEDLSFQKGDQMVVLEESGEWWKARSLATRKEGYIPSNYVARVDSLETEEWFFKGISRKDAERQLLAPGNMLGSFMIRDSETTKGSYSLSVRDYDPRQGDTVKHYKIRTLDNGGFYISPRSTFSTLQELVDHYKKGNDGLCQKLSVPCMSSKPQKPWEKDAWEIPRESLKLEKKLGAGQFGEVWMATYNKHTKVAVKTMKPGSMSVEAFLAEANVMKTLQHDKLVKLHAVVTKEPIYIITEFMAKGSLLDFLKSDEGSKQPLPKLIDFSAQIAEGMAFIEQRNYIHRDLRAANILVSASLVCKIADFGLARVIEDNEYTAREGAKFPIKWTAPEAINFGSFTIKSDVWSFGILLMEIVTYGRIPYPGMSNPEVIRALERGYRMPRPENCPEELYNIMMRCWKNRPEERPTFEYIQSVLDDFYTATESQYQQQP
- measurement-parameters: at 1 µM
endpoint: residual activity

{"smiles-entry": "N#CC(C#N)=C(N)/C(C#N)=C/c1ccc(O)cc1", "value-reported": "99%"}
{"smiles-entry": "Cc1ccc(NC2=CC(=O)c3sc(C)nc3C2=O)cc1", "value-reported": "103%"}
{"smiles-entry": "Cc1cc2ncc(-c3ccccc3)nc2cc1C", "value-reported": "105%"}
{"smiles-entry": "O=[N+]([O-])c1ccc(-c2nc(-c3ccc(F)cc3)c(-c3ccncc3)[nH]2)cc1", "value-reported": "97%"}
{"smiles-entry": "CC(C)n1cnc2/c(=N/c3cccc(Cl)c3)nc(NCCO)[nH]c21", "value-reported": "57%"}

====

- measurement-target: Serine/threonine-protein kinase mTOR (Homo sapiens)
- measurement-parameters: at 10 µM

{"smiles-entry": "Oc1c2ccccc2c2c3c(cccc13)N=N2", "residual activity [%]": 77}
{"smiles-entry": "Cn1nc2c3c(cccc31)C(=O)c1ccccc1-2", "residual activity [%]": 84}
{"smiles-entry": "COc1ccc(C(=O)Nc2sc3c(c2C(N)=O)CCCC3)cc1OC", "residual activity [%]": 104}
{"smiles-entry": "O=C1NC(=O)/C(=C\\c2ccc3nccnc3c2)S1", "residual activity [%]": 51}
{"smiles-entry": "NC(=O)c1ccc2[nH]c(-c3ccc(Oc4ccc(Cl)cc4)cc3)nc2c1", "residual activity [%]": 96}
{"smiles-entry": "CO[C@@H]1[C@H](N(C)C(=O)c2ccccc2)C[C@H]2O[C@]1(C)n1c3ccccc3c3c4c(c5c6ccccc6n2c5c31)C(=O)NC4", "residual activity [%]": 103}
{"smiles-entry": "Cc1nc(-c2ccccc2)c(-c2ccncc2)o1", "residual activity [%]": 103}
{"smiles-entry": "COc1cc2ncnc(Nc3ccc(O)c(Br)c3)c2cc1OC", "residual activity [%]": 111}
{"smiles-entry": "CN(C)c1ccc(/C=C2\\C(=O)Nc3ccccc32)cc1", "residual activity [%]": 101}
{"smiles-entry": "Nc1n[nH]c2nnc(-c3c(-c4ccccc4)nn4ccccc34)cc12", "residual activity [%]": 97}
{"smiles-entry": "O=C1Nc2ccc(Br)cc2/C1=C\\c1cc2c([nH]1)CCCC2", "residual activity [%]": 104}
